Value source: ChEMBL document CHEMBL1136029

# target_under_test: Steryl-sulfatase (Homo sapiens, UniProt P08842)
# Sequence (P08842 whole entry): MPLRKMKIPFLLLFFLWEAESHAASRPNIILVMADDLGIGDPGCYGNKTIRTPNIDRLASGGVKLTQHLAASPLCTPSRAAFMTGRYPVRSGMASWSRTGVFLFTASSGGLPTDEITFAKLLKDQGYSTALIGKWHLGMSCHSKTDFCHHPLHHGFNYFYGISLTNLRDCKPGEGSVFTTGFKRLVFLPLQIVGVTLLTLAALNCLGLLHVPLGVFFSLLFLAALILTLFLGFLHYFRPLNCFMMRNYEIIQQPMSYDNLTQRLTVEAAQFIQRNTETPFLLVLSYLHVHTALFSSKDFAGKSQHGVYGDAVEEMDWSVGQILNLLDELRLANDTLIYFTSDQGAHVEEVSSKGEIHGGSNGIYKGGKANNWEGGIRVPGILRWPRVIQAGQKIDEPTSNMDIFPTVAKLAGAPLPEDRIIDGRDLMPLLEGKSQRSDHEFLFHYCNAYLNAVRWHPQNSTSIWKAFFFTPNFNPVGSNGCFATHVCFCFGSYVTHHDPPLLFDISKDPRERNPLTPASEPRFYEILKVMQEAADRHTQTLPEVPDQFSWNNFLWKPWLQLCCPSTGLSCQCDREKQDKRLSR
# protocol_notes: Inhibitory activity against Estrone sulfatase was determined
observable: pIC50
Formally, pIC50 is defined as -log10 of the concentration c, with c in mol/L.

Which pIC50 value belongs to `COC(=O)c1ccc(OS(N)(=O)=O)cc1` ?
4.50
